This collection of values is drawn from paper PMC8955712.

# Measured Target: pancreatic lipase (PL) (Sus scrofa, UniProt P00591)
# Construct: purchased Sigma Aldrich Co. (St Louis, MO, USA)
# Sequence (P00591 whole entry): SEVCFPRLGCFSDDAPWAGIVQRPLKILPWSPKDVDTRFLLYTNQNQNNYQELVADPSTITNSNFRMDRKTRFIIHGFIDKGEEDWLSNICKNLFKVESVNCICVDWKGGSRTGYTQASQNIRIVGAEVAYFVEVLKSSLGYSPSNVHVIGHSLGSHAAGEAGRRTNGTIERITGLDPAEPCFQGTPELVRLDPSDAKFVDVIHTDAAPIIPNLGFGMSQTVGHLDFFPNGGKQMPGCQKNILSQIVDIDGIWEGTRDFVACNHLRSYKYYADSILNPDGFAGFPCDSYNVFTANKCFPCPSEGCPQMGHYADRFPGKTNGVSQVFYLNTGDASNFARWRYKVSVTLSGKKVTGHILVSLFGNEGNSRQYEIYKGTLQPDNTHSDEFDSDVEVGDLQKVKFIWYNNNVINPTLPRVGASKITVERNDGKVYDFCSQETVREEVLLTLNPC
# Procedure Text: PL (lipase) inhibition assay
# Type: biochemical
# Reported Conditions: read-out: IC50 Values Against PL
Readout Kind: pIC50
Entry type: numeric. Quantity: pIC50, the -log10 of concentration in molar units.

[in] Field request: pIC50 | item: C[C@H]1O[C@H](O[C@H]2[C@H](O)[C@@H](O)[C@@H](O[C@H]3[C@H](O)[C@@H](O)[C@@H](O[C@H]4[C@H](O)[C@@H](O)C(O)O[C@@H]4CO)O[C@@H]3CO)O[C@@H]2CO)[C@H](O)[C@@H](O)[C@@H]1N[C@H]1C=C(CO)[C@@H](O[C@H]2O[C@H](CO)[C@@H](O[C@H]3O[C@H](C)[C@@H](N[C@H]4C=C(CO)[C@@H](O)[C@H](O)[C@H]4O)[C@H](O)[C@H]3O)[C@H](O)[C@H]2O)[C@H](O)[C@H]1O (stereo partly shown)
[out] 4.90
